tested on: NCI-H23; assay: NCI tumour cell line growth inhibition, 48 h
Activity calls are given as the source filed them. Rule as the data show it: active = GI50 up to about 1.1 µM and inactive = higher.

COMPOUND: Cn1ccc(C(=O)N2CCSC2=S)c(OCc2ccccc2)c1=O
GI50: > 100 µM (inactive)
--
COMPOUND: O=[N+]([O-])/C(C(Cl)=C(Cl)Cl)=C(\N1CCCCC1)n1cncn1
GI50: 15.2 µM (inactive)
--
COMPOUND: CNc1nc2n(CCO)c(-c3ccccc3)c(-c3ccccc3)nc-2c(=O)n1
GI50: > 50 µM (inactive)
--
COMPOUND: CC(=O)OCC(OC(C)=O)C(OC(C)=O)C(OC(C)=O)C(C=NN(C(C)=O)S(=O)(=O)c1ccc(/C=C2\NC(=O)N(C)C2=O)cc1)OC(C)=O (stereo not given)
GI50: 36.1 µM (inactive)
--
COMPOUND: COCC(=O)OC1CCn2c1nc1c2C(=O)C(C)=C(NC(C)=O)C1=O (stereo not given)
GI50: 7.85 µM (inactive)
--
COMPOUND: CCN(CC)CCSc1nc2cccc([N+](=O)[O-])c2[nH]1
GI50: > 100 µM (inactive)
--
COMPOUND: CC(C)(C)c1cc(Oc2ccc(C#N)c(C#N)c2)cc(C(C)(C)C)c1
GI50: > 100 µM (inactive)
--
COMPOUND: CCC(=O)c1ccc2[nH]c3c(C)c4c(O)cc(C)nc4c(C)c3c2c1
GI50: > 100 µM (inactive)
--
COMPOUND: Cc1c(-c2ccccc2)c(-c2ccc(OCCN(C)C)cc2)n2ccccc12
GI50: 16.6 µM (inactive)
--
COMPOUND: CCN(CC)CCN1CCc2c([nH]c3ccccc23)C1c1cccnc1 (stereo not given)
GI50: > 100 µM (inactive)

====

system: SR; assay: NCI tumour cell line growth inhibition, 48 h
Activity calls are given as the source filed them. Cut-off read from the data, not from the text of the source: active = GI50 up to about 1.1 µM and inactive = higher.
Outcome codes: Yes (active), No (inactive)

COMPOUND: CC1NOC(=O)C1/N=N/c1ccc(Cl)cc1Cl (stereo not given)
CLASS NAME: No
//
COMPOUND: CN(C)CC1CC/C(=C\c2ccc(Cl)c(Cl)c2)C1=O (stereo not given)
CLASS NAME: No
//
COMPOUND: CN(C(=O)OC(C)(C)C)[C@H]1CCCC[C@H]1N1CCCC1
CLASS NAME: No
//
COMPOUND: N#CC(/C(=N/NC(=N)N)C(=O)Nc1ccccc1[N+](=O)[O-])c1nc(-c2ccc([N+](=O)[O-])cc2)cs1 (stereo not given)
CLASS NAME: No
//
COMPOUND: CCCCCCCCC(O)C#CC(N)=O (stereo not given)
CLASS NAME: No
//
COMPOUND: O=C(c1ccc(Cl)cc1)C(O)c1ccc(Cl)cc1 (stereo not given)
CLASS NAME: No
//
COMPOUND: CC12OC3(O)C4C5CC(C6C5C3C61)C42 (stereo not given)
CLASS NAME: No
//
COMPOUND: O=[N+]([O-])/C(C(Cl)=C(Cl)Cl)=C(\N1CCCCC1)n1cncn1
CLASS NAME: No
//
COMPOUND: COC(=O)CCc1ccc(CCC(=O)OC)cc1
CLASS NAME: No
//
COMPOUND: CCCCCCNC(=O)CCN(C(=O)O)S(=O)(=O)c1ccc(NC(=O)c2ccccc2)cc1
CLASS NAME: No
//
COMPOUND: COc1c2c(cc3c1OCO3)C13C=CC(OC)CC1N(CC3)C2.[O-][Cl+3]([O-])([O-])O (stereo not given)
CLASS NAME: No
//
COMPOUND: CC(C)CC1c2[nH]c3ccccc3c2C[C@H]2C(=O)NC(Cc3c[nH]c4ccccc34)C(=O)N12 (stereo not given in full)
CLASS NAME: No
//
COMPOUND: Nc1onc2c1Cc1c(noc1N)-c1ccccc1-2
CLASS NAME: No
//
COMPOUND: CS(=O)(=O)OCC(CCl)(CCl)CCl
CLASS NAME: No
//
COMPOUND: O=C(O)CCc1ccc(-c2ccccc2)[nH]1
CLASS NAME: No
//
COMPOUND: COc1ccc2c(c1)-c1c(c3cc(OC)ccc3n1CCCN(C)C)CC2
CLASS NAME: No
//
COMPOUND: CC(=O)OC1C2CCC1C1C2C2(Cl)C(Cl)=C(Cl)C1(Cl)C2(Cl)Cl (stereo not given)
CLASS NAME: No
//
COMPOUND: COC(=O)c1cc(CNCCc2c[nH]c3ccccc23)on1
CLASS NAME: No
//
COMPOUND: COC(=O)C12C(=O)O[C@H](C)C1(O)C(C)C(=O)N2C (stereo not given in full)
CLASS NAME: No
//
COMPOUND: CC(C)(C)OC(=O)NC(CSCc1ccc(C(=O)c2ccccc2)cc1)C(=O)O (stereo not given)
CLASS NAME: No
//
COMPOUND: CC(=O)NC1C(OCc2ccccc2)OC(CO)C(O)C1OCC(=O)N[C@@H](C)C(=O)N[C@H](CCC(=O)NCCCCNc1c2ccccc2nc2cccc([N+](=O)[O-])c12)C(N)=O (stereo not given in full)
CLASS NAME: Yes
//
COMPOUND: COc1cccc(-c2cc(C(=O)Nc3ccc(Cl)cc3)nc(N)n2)c1
CLASS NAME: No
//
COMPOUND: CCCCCCCCCCCCCCCCNCCCN(C)CCCN
CLASS NAME: No
//
COMPOUND: CCc1ccc(Nc2cc(=O)n(C)c(SCc3ccccc3)n2)cc1
CLASS NAME: No
//
COMPOUND: COc1c(C)c(OC)c(C(=O)CC(C)C)c(OC)c1C
CLASS NAME: No

====

test system: SF-539; assay: NCI tumour cell line growth inhibition, 48 h
The source made the active and inactive calls. No stated cut-off is given here; in the data, active = GI50 up to about 1.1 µM and inactive = higher.
Outcome codes: active, inactive

COMPOUND: O=c1c(C(c2ccc3ccccc3c2)c2c(O)oc3cc(O)ccc3c2=O)c(O)oc2cc(O)ccc12
CLASS NAME: inactive
//
COMPOUND: CNC(C#N)c1ccc(OC)cc1 (stereo not drawn)
CLASS NAME: inactive
//
COMPOUND: c1cncc(C(Nc2cccc3cccnc23)Nc2cccc3cccnc23)c1
CLASS NAME: inactive
//
COMPOUND: O=C(NCCC(F)(F)C(F)(F)C(F)(F)C(F)(F)F)NC1OC(CO)C(O)C(O)C1O (stereo not drawn)
CLASS NAME: inactive
//
COMPOUND: O=C(Nc1noc(-c2ccccc2)n1)c1ccccc1CNc1noc(-c2ccccc2)n1
CLASS NAME: inactive
//
COMPOUND: COc1cc(CCc2ccc(OCCN(C)C)cc2)cc(OC)c1OC
CLASS NAME: inactive
//
COMPOUND: CC1=C[C@@H](C)C[C@]2(C)CC[C@H](O2)[C@]23CC[C@](C)(C[C@H](O2)[C@@H]2O[C@@](C)(CC2=O)[C@@H](O)[C@H]2CC[C@@]4(CCC[C@@H](O4)[C@H](C)C(=O)O[C@H]4C[C@H]([C@]5(O)OCC[C@H](C)[C@@H]5O)O[C@H]4C=C1)O2)O3
CLASS NAME: active
//
COMPOUND: COc1c2c(cc3oc(C)cc(=O)c13)OC(=N)C(C(N)=O)C2CC(=O)c1ccc(N)cc1 (stereo not drawn)
CLASS NAME: inactive
//
COMPOUND: CN(CCCCN(C)CCc1ccc(Cl)c(Cl)c1)CCCCN1CCCC1
CLASS NAME: active
//
COMPOUND: CCOC(=O)/C=C(\N=P(c1ccccc1)(c1ccccc1)c1ccccc1)C(F)(F)C(F)(F)C(F)(F)C(F)(F)C(F)(F)F
CLASS NAME: inactive
//
COMPOUND: C=CCC1=C(C)C[C@@H]2CCC(=O)C=C12
CLASS NAME: inactive
//
COMPOUND: C[Si](C)(c1ccccc1)[C@H]1CCCC=C1CCNC1c2ccccc2CCc2ccccc21
CLASS NAME: inactive
//
COMPOUND: COc1ccc2c(CCNS(=O)(=O)c3ccccc3)c(C(C)=O)[nH]c2c1[N+](=O)[O-]
CLASS NAME: inactive
//
COMPOUND: CCOc1ccc(NC(=O)C2=C(C)NC(C)=C(C(=O)Nc3ccc(OCC)cc3)C2c2ccc(O)c(OC)c2)cc1
CLASS NAME: inactive
//
COMPOUND: COC(=O)C1=C(C)NC(=O)N2[C@@H](CCOCc3ccccc3)CC[C@@H]12
CLASS NAME: inactive
//
COMPOUND: CCCCCCCCCCCCCCCCOCC(CCl)OP(=O)(O)OP(=O)(O)OCC1OC(n2ccc(N)nc2=O)C(O)C1O (stereo not drawn)
CLASS NAME: inactive
//
COMPOUND: O=C(/C=C/c1ccc(Cl)c(Cl)c1)c1ccc(F)cc1
CLASS NAME: inactive
//
COMPOUND: CCCCN(CCCC)C1=Nc2ccccc2-n2c(nnc2C(=O)OCC)C1
CLASS NAME: inactive
